B1: library; numbered along this chain (parent)
chain: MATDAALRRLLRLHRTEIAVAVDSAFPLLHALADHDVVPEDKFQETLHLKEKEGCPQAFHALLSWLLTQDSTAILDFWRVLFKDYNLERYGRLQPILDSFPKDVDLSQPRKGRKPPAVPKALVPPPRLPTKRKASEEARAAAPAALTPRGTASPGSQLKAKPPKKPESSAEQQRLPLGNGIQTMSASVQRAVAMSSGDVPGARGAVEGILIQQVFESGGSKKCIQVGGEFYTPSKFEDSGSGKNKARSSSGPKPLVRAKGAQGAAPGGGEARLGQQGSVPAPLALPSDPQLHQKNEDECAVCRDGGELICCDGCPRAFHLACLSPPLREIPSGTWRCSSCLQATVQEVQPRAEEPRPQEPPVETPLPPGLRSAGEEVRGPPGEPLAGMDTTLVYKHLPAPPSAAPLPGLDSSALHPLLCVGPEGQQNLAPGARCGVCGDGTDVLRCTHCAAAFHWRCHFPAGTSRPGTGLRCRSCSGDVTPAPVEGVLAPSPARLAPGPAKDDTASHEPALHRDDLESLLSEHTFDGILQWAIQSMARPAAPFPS

variants of: B1; experiment: AIRE transcriptional activation functional score (insulin promoter-GFP; nonsense median 0, synonymous median 1) (normalised score); higher = higher AIRE activity (more reporter activation); settings: with insulin promoter-GFP reporter in HEK293
Give AIRE transcriptional activation functional score for every item shown.
Just the number.

q: Please report AIRE transcriptional activation functional score for the following variant: `G263L`
a: 0.99

q: Please report AIRE transcriptional activation functional score for the following variant: `P416A`
a: 0.819

q: Please report AIRE transcriptional activation functional score for the following variant: `G240W`
a: 1.09

q: Please report AIRE transcriptional activation functional score for the following variant: `G387W`
a: 1.52

q: Please report AIRE transcriptional activation functional score for the following variant: `R139D`
a: 0.568

q: Please report AIRE transcriptional activation functional score for the following variant: `C337G`
a: 1.5

q: Please report AIRE transcriptional activation functional score for the following variant: `D502G`
a: 1.04

q: Please report AIRE transcriptional activation functional score for the following variant: `A451N`
a: 0.582

q: Please report AIRE transcriptional activation functional score for the following variant: `P252D`
a: 0.862

q: Please report AIRE transcriptional activation functional score for the following variant: `D304Y`
a: 0.808

q: Please report AIRE transcriptional activation functional score for the following variant: `D502A`
a: 0.926

q: Please report AIRE transcriptional activation functional score for the following variant: `S464A`
a: 0.955

q: Please report AIRE transcriptional activation functional score for the following variant: `D503Y`
a: 1.14

q: Please report AIRE transcriptional activation functional score for the following variant: `A352V`
a: 0.882

q: Please report AIRE transcriptional activation functional score for the following variant: `G469A`
a: 0.409

q: Please report AIRE transcriptional activation functional score for the following variant: `D442M`
a: 0.124

q: Please report AIRE transcriptional activation functional score for the following variant: `L320P`
a: 0.869

q: Please report AIRE transcriptional activation functional score for the following variant: `D410M`
a: 0.501

q: Please report AIRE transcriptional activation functional score for the following variant: `H523G`
a: 1.65

q: Please report AIRE transcriptional activation functional score for the following variant: `S411L`
a: 1.24

q: Please report AIRE transcriptional activation functional score for the following variant: `C434N`
a: 0.201

q: Please report AIRE transcriptional activation functional score for the following variant: `P166V`
a: 0.921

q: Please report AIRE transcriptional activation functional score for the following variant: `R351E`
a: 0.835

q: Please report AIRE transcriptional activation functional score for the following variant: `V123D`
a: 1.11

q: Please report AIRE transcriptional activation functional score for the following variant: `F236K`
a: 0.0925

q: Please report AIRE transcriptional activation functional score for the following variant: `F100E`
a: -0.0797

q: Please report AIRE transcriptional activation functional score for the following variant: `T447S`
a: 1.29

q: Please report AIRE transcriptional activation functional score for the following variant: `S474A`
a: 0.936

q: Please report AIRE transcriptional activation functional score for the following variant: `A202D`
a: 0.687

q: Please report AIRE transcriptional activation functional score for the following variant: `K120V`
a: 1.01

q: Please report AIRE transcriptional activation functional score for the following variant: `G201D`
a: 0.481

q: Please report AIRE transcriptional activation functional score for the following variant: `V436K`
a: 1.21

q: Please report AIRE transcriptional activation functional score for the following variant: `A25G`
a: 0.475

q: Please report AIRE transcriptional activation functional score for the following variant: `P286D`
a: 0.448

q: Please report AIRE transcriptional activation functional score for the following variant: `A152K`
a: 0.993

q: Please report AIRE transcriptional activation functional score for the following variant: `Y394M`
a: 1.13

q: Please report AIRE transcriptional activation functional score for the following variant: `S464G`
a: 1.27

q: Please report AIRE transcriptional activation functional score for the following variant: `A532S`
a: 0.141

q: Please report AIRE transcriptional activation functional score for the following variant: `P27M`
a: -0.268

q: Please report AIRE transcriptional activation functional score for the following variant: `G150L`
a: 1.3

q: Please report AIRE transcriptional activation functional score for the following variant: `Q425S`
a: 1.06

q: Please report AIRE transcriptional activation functional score for the following variant: `D23F`
a: 0.3

q: Please report AIRE transcriptional activation functional score for the following variant: `D23Y`
a: -0.199

q: Please report AIRE transcriptional activation functional score for the following variant: `E296G`
a: 1.03

q: Please report AIRE transcriptional activation functional score for the following variant: `F453Y`
a: 0.32

q: Please report AIRE transcriptional activation functional score for the following variant: `D514Q`
a: -0.128

q: Please report AIRE transcriptional activation functional score for the following variant: `D103T`
a: 0.146

q: Please report AIRE transcriptional activation functional score for the following variant: `P350Q`
a: 0.912

q: Please report AIRE transcriptional activation functional score for the following variant: `W65S`
a: 0.269

q: Please report AIRE transcriptional activation functional score for the following variant: `C310N`
a: 0.714

q: Please report AIRE transcriptional activation functional score for the following variant: `Q346A`
a: 0.913

q: Please report AIRE transcriptional activation functional score for the following variant: `A386W`
a: 1.47

q: Please report AIRE transcriptional activation functional score for the following variant: `R9H`
a: 0.195

q: Please report AIRE transcriptional activation functional score for the following variant: `L13G`
a: -0.0939

q: Please report AIRE transcriptional activation functional score for the following variant: `G421P`
a: 1.4

q: Please report AIRE transcriptional activation functional score for the following variant: `A540K`
a: 0.195

q: Please report AIRE transcriptional activation functional score for the following variant: `E51C`
a: -0.0446

q: Please report AIRE transcriptional activation functional score for the following variant: `K133L`
a: -0.0606

q: Please report AIRE transcriptional activation functional score for the following variant: `C299Y`
a: 0.416

q: Please report AIRE transcriptional activation functional score for the following variant: `A493E`
a: 0.985

q: Please report AIRE transcriptional activation functional score for the following variant: `A246Q`
a: -0.0407

q: Please report AIRE transcriptional activation functional score for the following variant: `S411F`
a: 1.46

q: Please report AIRE transcriptional activation functional score for the following variant: `L366V`
a: 0.996

q: Please report AIRE transcriptional activation functional score for the following variant: `G382V`
a: 1.22

q: Please report AIRE transcriptional activation functional score for the following variant: `E40R`
a: -0.956

q: Please report AIRE transcriptional activation functional score for the following variant: `A450E`
a: 1.24

q: Please report AIRE transcriptional activation functional score for the following variant: `H454F`
a: 0.117

q: Please report AIRE transcriptional activation functional score for the following variant: `L308D`
a: 0.755

q: Please report AIRE transcriptional activation functional score for the following variant: `R92H`
a: 0.298

q: Please report AIRE transcriptional activation functional score for the following variant: `C475Q`
a: 0.568

q: Please report AIRE transcriptional activation functional score for the following variant: `A489E`
a: 0.655

q: Please report AIRE transcriptional activation functional score for the following variant: `S287M`
a: 1.29

q: Please report AIRE transcriptional activation functional score for the following variant: `L122Q`
a: 0.272

q: Please report AIRE transcriptional activation functional score for the following variant: `D410Y`
a: 1.27

q: Please report AIRE transcriptional activation functional score for the following variant: `P483H`
a: 1.13

q: Please report AIRE transcriptional activation functional score for the following variant: `D288C`
a: 1.26

q: Please report AIRE transcriptional activation functional score for the following variant: `P481D`
a: 1.21

q: Please report AIRE transcriptional activation functional score for the following variant: `E17F`
a: -0.224

q: Please report AIRE transcriptional activation functional score for the following variant: `S156N`
a: 1.39

q: Please report AIRE transcriptional activation functional score for the following variant: `V118Q`
a: 0.675

q: Please report AIRE transcriptional activation functional score for the following variant: `G155P`
a: -0.203

q: Please report AIRE transcriptional activation functional score for the following variant: `D105F`
a: 0.419

q: Please report AIRE transcriptional activation functional score for the following variant: `D439R`
a: 0.536

q: Please report AIRE transcriptional activation functional score for the following variant: `G242W`
a: 0.936

q: Please report AIRE transcriptional activation functional score for the following variant: `E216G`
a: 1.09

q: Please report AIRE transcriptional activation functional score for the following variant: `L28A`
a: -0.115

q: Please report AIRE transcriptional activation functional score for the following variant: `L308Y`
a: 0.412

q: Please report AIRE transcriptional activation functional score for the following variant: `L106Q`
a: -0.722

q: Please report AIRE transcriptional activation functional score for the following variant: `P200A`
a: 0.713

q: Please report AIRE transcriptional activation functional score for the following variant: `A403V`
a: 1.29

q: Please report AIRE transcriptional activation functional score for the following variant: `A170M`
a: 0.0569

Origin of measurements: the supplement of paper PMC12667976
